Catalogue of pIC50 values
- tested_target: full-length human CSNK1A1 (Homo sapiens)
- Construct: N-terminal Glutathion-S-Transferase (GST) and full-length human CSNK1A1; purchased Life Technologies PV4174; host or cells: baculovirus infected insect cells
- experimental_protocol: CSNK1A1 Assay 2 (ADP-Glo, 1 μM ATP, substrate biotin-Ahx-KRRRAL-pS-VASLPGL)
- Type: biochemical
- condition_notes: Table 3, read-out: CSNK1A1 Assay 2 IC50 [mol/l] (median)
Would you please state pIC50, meaning minus log10 of the concentration in mol/L, as a bare number?

Example cases with answers are listed next.
molecule	tested_target	pIC50
COc1cnc2c(-c3ccccn3)c(-c3ccnc(NC(=O)C(CC(F)F)c4ccc(F)cc4)c3)[nH]c2n1 (centres unmarked) [Example 101]	full-length human CSNK1A1 (Homo sapiens)	8.32
O=C(Nc1cc(-c2[nH]c3c(OC[C@H]4COCCO4)cc(F)nc3c2-c2ccccn2)ccn1)C(CC(F)F)c1ccc(F)cc1 (single isomer, unassigned) [Example 51]	full-length human CSNK1A1 (Homo sapiens)	8.33
O=C(Nc1cc(-c2[nH]c3c(O[C@H]4CCOC4)cc(F)nc3c2-c2ccccn2)ccn1)C(CC(F)F)c1ccc(F)cc1 (mixture of isomers) [Example 53]	full-length human CSNK1A1 (Homo sapiens)	8.22
O=C(Nc1cc(-c2[nH]c3cc(F)cnc3c2-c2ccccn2)ccn1)C(CC(F)F)c1ccc(F)cc1 (racemic) [Example 16]	full-length human CSNK1A1 (Homo sapiens)	8.47
O=C(Nc1cc(-c2[nH]c3nccnc3c2-c2ccccn2)ccn1)C(CC(F)(F)F)c1ccc(F)cc1 (racemic) [Example 119]	full-length human CSNK1A1 (Homo sapiens)	8.57

Okay, now this molecule:
Short answer for O=C(Nc1cc(-c2[nH]c3ccnnc3c2-c2ccccn2)ccn1)C(CC(F)F)c1ccc(F)cc1 (single isomer, unassigned) [Example 67] : pIC50 was 7.66

====

- tested_target: full-length human CSNK1A1 (Homo sapiens, UniProt P48729)
- Construct: N-terminal Glutathion-S-Transferase (GST) and full-length human CSNK1A1; purchased Life Technologies PV4174; host or cells: baculovirus infected insect cells
- Sequence (P48729 whole entry): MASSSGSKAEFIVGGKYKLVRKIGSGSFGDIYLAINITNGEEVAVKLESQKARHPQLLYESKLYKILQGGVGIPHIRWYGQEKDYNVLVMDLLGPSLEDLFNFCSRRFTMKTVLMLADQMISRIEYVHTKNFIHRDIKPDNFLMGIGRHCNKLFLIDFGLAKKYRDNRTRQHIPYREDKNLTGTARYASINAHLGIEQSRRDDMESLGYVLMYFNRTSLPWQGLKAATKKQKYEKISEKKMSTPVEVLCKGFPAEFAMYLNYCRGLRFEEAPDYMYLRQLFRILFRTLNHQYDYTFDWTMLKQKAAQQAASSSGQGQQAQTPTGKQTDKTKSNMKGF
- experimental_protocol: CSNK1A1 Assay 2 (ADP-Glo, 1 μM ATP, substrate biotin-Ahx-KRRRAL-pS-VASLPGL)
- Assay type: biochemical
- condition_notes: Table 3, read-out: CSNK1A1 Assay 2 IC50 [mol/l] (median)
experimental_readout: pIC50
To interpret pIC50, take it as minus log10 of a concentration measured in moles per litre.

As a guide, the following entries are already answered.
molecule	tested_target	pIC50
O=C(Nc1cc(-c2[nH]c3c(OCC(F)F)ncnc3c2-c2ccccn2)ccn1)C(CC(F)F)c1ccc(F)cc1 (racemic) [Example 78]	full-length human CSNK1A1 (Homo sapiens, UniProt P48729)	8.29
O=C(Nc1cc(-c2[nH]c3c(OC4CC4)cc(F)nc3c2-c2ccccn2)ccn1)C(CC(F)F)c1ccc(F)cc1 (racemic) [Example 42]	full-length human CSNK1A1 (Homo sapiens, UniProt P48729)	8.09
O=C(Nc1cc(-c2[nH]c3c(OC[C@H]4COCCO4)cc(F)nc3c2-c2ccccn2)ccn1)C(CC(F)F)c1ccc(F)cc1 (single isomer, unassigned) [Example 52]	full-length human CSNK1A1 (Homo sapiens, UniProt P48729)	7.76
O=C(Nc1cc(-c2[nH]c3c(O[C@H]4CCOC4)cc(F)nc3c2-c2ccccn2)ccn1)C(CC(F)F)c1ccc(F)cc1 (single isomer, unassigned) [Example 55]	full-length human CSNK1A1 (Homo sapiens, UniProt P48729)	7.74
O=C(Nc1cc(-c2[nH]c3cc(Cl)cnc3c2-c2ccccn2)ccn1)C(CC(F)F)c1ccc(F)cc1 (single isomer, unassigned) [Example 88]	full-length human CSNK1A1 (Homo sapiens, UniProt P48729)	8.33
O=C(Nc1cc(-c2[nH]c3nc(F)cnc3c2-c2ccccn2)ccn1)C(CC(F)F)c1ccc(F)cc1 (racemic)	full-length human CSNK1A1 (Homo sapiens, UniProt P48729)	8.24

The molecule listed as O=C(Nc1cc(-c2[nH]c3ccnnc3c2-c2ccccn2)ccn1)C(CC(F)F)c1ccc(F)cc1 (single isomer, unassigned) [Example 66] shows pIC50 equal to 8.61

The measured pIC50 associated with O=C(Nc1cc(-c2[nH]c3cccnc3c2-c2ccccn2)ccn1)C(CCO)c1ccc(F)cc1 (stereo not drawn) reads 8.20

According to the records, this molecule O=C(Nc1cc(-c2[nH]c3c(CC4CC4)cc(F)nc3c2-c2ccccn2)ccn1)C(CC(F)F)c1ccc(F)cc1 (single isomer, unassigned) [Example 48] displays pIC50 of 8.00

Consider Cc1cnc2c(-c3ccccn3)c(-c3ccnc(NC(=O)C(CC(F)F)c4ccc(F)cc4)c3)[nH]c2c1 (single isomer, unassigned) [Example 9] . Its measured pIC50 is 7.80

So for O=C(Nc1cc(-c2[nH]c3cccnc3c2-c2ccccc2)ccn1)C(CC(F)F)c1ccc(F)cc1 (single isomer, unassigned; (+)) [Example 24] , the logged pIC50 turned out to be 8.79

Field pIC50 (entry O=C(Nc1cc(-c2[nH]c3c(OCC(F)(F)F)ncnc3c2-c2ccccn2)ccn1)C(CC(F)F)c1ccc(F)cc1 (single isomer, unassigned) [Example 124] ) reads 7.52

====

- tested_target: full-length human CSNK1A1 (Homo sapiens)
- Construct: N-terminal Glutathion-S-Transferase (GST) and full-length human CSNK1A1; purchased Life Technologies PV4174; host or cells: baculovirus infected insect cells
- experimental_protocol: CSNK1A1 High ATP Assay (ADP-Glo, 1 mM ATP);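 note: 30 min kinase reaction at 22 °C with 100 µM peptide substrate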
- Assay type: biochemical
- condition_notes: Table 3, read-out: CSNK1A1 high ATP assay IC50 [mol/l] (median)
Form field: IC50 (one value per entry).
Respond with a number, then the unit of measure.

Solved entries:
> print(dat)
                                   molecule  value.observed
1  O=C(Nc1cc(-c2[nH]c3cc(Cl)nnc3c2-c2ccccn2)ccn1)C(CC(F)F)c1ccc(F)cc1 (racemic)         6.93 nM
2  O=C(Nc1cc(-c2[nH]c3c(O[C@H]4CCOC4)cc(F)nc3c2-c2ccccn2)ccn1)C(CC(F)F)c1ccc(F)cc1 (single isomer, unassigned) [Example 54]         4.22 nM

Now for the molecule whose IC50 we want.
Record O=C(Nc1cc(-c2[nH]c3ncc(F)nc3c2-c2ccccn2)ccn1)C(CC(F)F)c1ccc(F)cc1 (racemic) [Example 62] , field IC50: 3.92 nM

====

// pIC50 lookup, one value per entry
- tested_target: full-length human CSNK1A1 (Homo sapiens)
- Construct: N-terminal Glutathion-S-Transferase (GST) and full-length human CSNK1A1; purchased Life Technologies PV4174; host or cells: baculovirus infected insect cells
- experimental_protocol: CSNK1A1 Assay 2 (ADP-Glo, 1 μM ATP, substrate biotin-Ahx-KRRRAL-pS-VASLPGL)
- Assay type: biochemical
- condition_notes: Table 3, read-out: CSNK1A1 Assay 2 IC50 [mol/l] (median)
To interpret pIC50, take it as minus log10 of a concentration measured in moles per litre.

> print(dat)
                                   molecule  experimental.readout  value.observed
1  Cc1cnc2c(-c3ccccn3)c(-c3ccnc(NC(=O)C(CC(F)F)c4ccc(F)cc4)c3)[nH]c2c1 (single isomer, unassigned) [Example 8]                 pIC50            8.52

Kindly note the recorded pIC50 for O=C(Nc1cc(-c2[nH]c3c(O[C@H]4CCOC4)ncnc3c2-c2ccccn2)ccn1)C(CC(F)F)c1ccc(F)cc1 (single isomer, unassigned) [Example 74] , which is 7.45

Summary for this molecule, Cc1cc(F)nc2c(-c3ccccn3)c(-c3ccnc(NC(=O)C(CC(F)F)c4ccc(F)cc4)c3)[nH]c12 (single isomer, unassigned; (+)) [Example 37] : pIC50 is 8.40

Recorded pIC50 (molecule O=C(Nc1cc(-c2[nH]c3c(C4CCCO4)cc(F)nc3c2-c2ccccn2)ccn1)C(CC(F)F)c1ccc(F)cc1 (single isomer, unassigned) [Example 116] ): 8.29

The molecule listed as CC(C)(O)c1cc(F)nc2c(-c3ccccn3)c(-c3ccnc(NC(=O)C(CC(F)F)c4ccc(F)cc4)c3)[nH]c12 (racemic) [Example 98] has a reported pIC50 of 8.13

Measured pIC50 of Cc1cc2[nH]c(-c3ccnc(NC(=O)C(CC(F)F)c4ccc(F)cc4)c3)c(-c3ccccn3)c2nc1F (single isomer, unassigned) [Example 34] : 8.42

====

pIC50 overview
- tested_target: full-length human CSNK1A1 (Homo sapiens, UniProt P48729)
- Construct: N-terminal Glutathion-S-Transferase (GST) and full-length human CSNK1A1; purchased Life Technologies PV4174; host or cells: baculovirus infected insect cells
- experimental_protocol: CSNK1A1 High ATP Assay (ADP-Glo, 1 mM ATP);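 note: 30 min kinase reaction at 22 °C with 100 µM peptide substrate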
- Format: biochemical
- condition_notes: Table 3, read-out: CSNK1A1 high ATP assay IC50 [mol/l] (median)
Keep it numeric: pIC50 is minus log10 of the concentration in mol/L.

Known pIC50 results, listed for orientation:
> print(dat)
                                   compound  experimental.readout  value.observed
1  O=C(Nc1cc(-c2[nH]c3c(OCC(F)(F)F)ncnc3c2-c2ccccn2)ccn1)C(CC(F)F)c1ccc(F)cc1 (racemic) [Example 122]                 pIC50            7.52
2  O=C(Nc1cc(-c2[nH]c3nccnc3c2-c2ccccn2)ccn1)C(CC(F)(F)F)c1ccc(F)cc1 (racemic) [Example 119]                 pIC50            7.31

Entry COc1cc(F)nc2c(-c3ccccn3)c(-c3ccnc(NC(=O)C(CC(F)F)c4ccc(F)cc4)c3)[nH]c12 (racemic) [Example 39] ; pIC50 = 7.72

These data points were gathered from patent US12692261B2.
